// provenance: ChEMBL document CHEMBL3734667

# measurement-protocol: Cytotoxicity against BHK cells assessed as cell viability after 48 to 96 hrs by MTT assay
# Format: cell-based, Mesocricetus auratus
# test-context: hamster
// reported CC50 per item
observation-type: CC50

compound: CC(C)(COc1ccc(-n2nc3ccc(Cl)cc3n2)cc1)C(=O)O
test-result: 47 µM
--
compound: Cc1cc(-n2nc3ccccc3n2)cc(C)c1OC(C)(C)C(=O)O
test-result: > 100 µM
--
compound: FC(F)(F)c1ccc2nn(Cc3ccccc3)nc2c1
test-result: > 100 µM
--
compound: Cc1ccc2nn(-c3ccc(OCC(C)(C)C(=O)O)cc3)nc2c1
test-result: ≥ 100 µM
--
compound: O=C(O)COc1ccc(-n2nc3ccc(Cl)cc3[n+]2[O-])cc1
test-result: > 100 µM
--
compound: FC(F)(F)c1ccc2nn(Cc3ccc(Cl)cc3)nc2c1
test-result: > 100 µM
--
compound: COc1cc(C(=O)OCCn2nnc3ccccc32)cc(OC)c1OC
test-result: 70 µM
--
compound: O=C(Cn1nc2ccccc2n1)N1CCOCC1
test-result: > 100 µM
--
compound: Cc1ccc2nn(-c3ccc(OC(C)(C)C(=O)O)cc3)nc2c1
test-result: > 100 µM
--
compound: C[C@H](Oc1ccc(-n2nc3ccccc3n2)cc1)C(=O)O
test-result: > 100 µM
--
compound: Clc1cc2nn(C3CCCCO3)nc2cc1Cl (centres undefined)
test-result: > 100 µM
--
compound: C[C@@H](Oc1ccc(-n2nc3ccccc3n2)cc1)C(=O)O
test-result: > 100 µM
--
compound: FC(F)(F)c1ccc2c(c1)nnn2C[C@@H]1CCCN2CCCC[C@H]12
test-result: > 100 µM
--
compound: CC(CC(=O)O)n1nc2c(Cl)c(Cl)c(Cl)c(Cl)c2n1 (centres undefined)
test-result: 33 µM
--
compound: COc1c(C)c2c(c(O)c1C/C=C(\C)CCC(=O)O)C(=O)OC2 [MYCOPHENOLIC ACID]
test-result: > 100 µM
--
compound: CN(C)c1cccc(C(=O)OCCn2nnc3ccccc32)c1
test-result: > 100 µM
--
compound: CC(CC(=O)O)n1nnc2ccc([N+](=O)[O-])cc21 (centres undefined)
test-result: > 100 µM
--
compound: Clc1ccc(Cn2nc3cc(Cl)c(Cl)cc3n2)cc1
test-result: > 100 µM
--
compound: COc1cc(C(=O)OCCCn2nnc3ccccc32)cc(OC)c1OC
test-result: > 100 µM
--
compound: [O-][n+]1c2ccccc2nn1-c1ccc(O)cc1
test-result: > 100 µM
--
compound: NC(=O)c1ncn([C@@H]2O[C@H](CO)[C@@H](O)[C@H]2O)n1 [RIBAVIRIN]
test-result: > 100 µM
--
compound: Cc1cc2nn(C3CCCO3)nc2cc1C (centres undefined)
test-result: > 100 µM
--
compound: Nc1ccc(-n2nc3ccccc3n2)cc1
test-result: 100 µM
--
compound: CN(C)c1cccc(C(=O)OCCCn2nc3ccccc3n2)c1
test-result: > 100 µM

----------
// reported pEC50 per item
# Tested on: Bovine viral diarrhea virus 1
# measurement-protocol: Antiviral activity against BVDV infected in MDBK cells assessed as inhibition of virus-induced cytopathogenicity after 3 to 4 days by MTT assay
# Assay type: functional, organism-based
# test-context: Bovine viral diarrhea virus isolates and strains
pEC50: −log10 of the molar value.
observation-type: pEC50

compound: COc1ccccc1N1CCN(CCCOc2ccc(-n3nc4ccc(C(F)(F)F)cc4n3)cc2)CC1
test-result: < 4.00

compound: CN(C)C(=O)Cn1nnc2ccccc21
test-result: < 4.00

compound: CC(C)(CCCOc1ccc(-n2nc3ccccc3n2)cc1)C(=O)O
test-result: 4.57

compound: COc1ccc2nn(-c3ccc(OC(C)(C)C(=O)O)cc3)nc2c1
test-result: < 4.00

compound: FC(F)(F)c1ccc2nn(Cc3ccccc3)nc2c1
test-result: < 4.00

compound: CN1CCN(CCn2nnc3ccccc32)CC1
test-result: < 4.00

compound: Clc1cc2nnn(C3CCCCO3)c2cc1Cl (centres undefined)
test-result: < 4.00

compound: CC(CC(=O)O)n1nc2c(Cl)c(Cl)c(Cl)c(Cl)c2n1 (centres undefined)
test-result: 4.31

compound: FC(F)(F)c1ccc2c(c1)nnn2C[C@@H]1CCCN2CCCC[C@H]12
test-result: < 4.00

compound: O=c1cnn([C@@H]2O[C@H](CO)[C@@H](O)[C@H]2O)c(=O)[nH]1
test-result: < 4.00

compound: Clc1cc2nnn(C3CCCO3)c2cc1Cl (centres undefined)
test-result: < 4.00

compound: COc1ccc(Cn2nc3ccc(C(F)(F)F)cc3n2)cc1
test-result: < 4.00

compound: COc1cc(/C=C/C(=O)OCCn2nc3ccccc3n2)cc(OC)c1OC
test-result: < 4.00

compound: COc1ccc2nn(-c3ccc(OCCCC(C)(C)C(=O)O)cc3)nc2c1
test-result: 4.36

compound: COc1ccc(Cn2nc3cc(Cl)c(Cl)cc3n2)cc1
test-result: < 4.00

compound: CN(C)c1cccc(C(=O)OCCn2nnc3ccccc32)c1
test-result: < 4.00

compound: Oc1ccc(-n2nc3ccccc3n2)cc1
test-result: 4.77

compound: COc1c(C)c2c(c(O)c1C/C=C(\C)CCC(=O)O)C(=O)OC2
test-result: < 4.00

compound: CC(C)(Oc1ccc(-n2nc3ccccc3n2)cc1)C(=O)O
test-result: < 4.00

compound: CN(C)c1cccc(C(=O)OCCCn2nc3ccccc3n2)c1
test-result: < 4.00

compound: CC(C)(Oc1ccc(-n2nc3ccc(Cl)cc3n2)cc1)C(=O)O
test-result: < 4.00

compound: Oc1ccc(-n2nc3cc(Cl)c(Cl)cc3n2)cc1
test-result: 4.85

compound: COc1ccc(-n2nc3cc(Cl)c(Cl)cc3n2)cc1
test-result: < 4.00

compound: CC(C)(CCCOc1ccc(-n2nc3ccc(Cl)cc3n2)cc1)C(=O)O
test-result: < 4.00
